Test system: KM12
assay.comment: cells
experimental.context: Homo sapiens, KM12, 48 h
I'd appreciate it if you could supply log10 GI50 values for the items below.
Give log10 of GI50, with GI50 taken in µM.

IN: Recorded log10 GI50 for COc1cc(/C=C/C(=O)c2ccc(S(=O)(=O)NCCNc3nc(Nc4ccc(F)cc4)nc(N(C)C)n3)cc2)cc(OC)c1OC [24d] , please?
OUT: 0.32

IN: Recorded log10 GI50 for COc1cc(C2CC(c3ccc(Cl)cc3)=Nc3c(N)nc(N)nc3N2)ccc1Oc1nc(Nc2ccc(F)cc2)nc(N(C)C)n1 (stereo not shown) [29e] , please?
OUT: 1.60

IN: Recorded log10 GI50 for Cc1ccc(/C=C/C(=O)c2ccc(S(=O)(=O)NCCNc3nc(Nc4ccc(F)cc4)nc(N(C)C)n3)cc2)cc1 [24b] , please?
OUT: 0.73

IN: Recorded log10 GI50 for CN(C)c1nc(NCCNS(=O)(=O)c2ccc(C3=Nc4c(N)nc(N)nc4NC(c4ccccc4)C3)cc2)nc(Nc2ccc(F)cc2)n1 (stereo not shown) [31a] , please?
OUT: 0.94

IN: Recorded log10 GI50 for Nc1nc(N)c2c(n1)NC(c1ccc(Cl)cc1)CC(c1ccc(Nc3nc(NCCO)nc(Nc4ccc(Cl)cc4)n3)cc1)=N2 (stereo not shown) [33e] , please?
OUT: 0.50

IN: Recorded log10 GI50 for COc1cc(/C=C/C(=O)c2ccc(C)cc2)ccc1Oc1nc(NCCO)nc(N2CCOCC2)n1 [20b] , please?
OUT: 0.27

IN: Recorded log10 GI50 for Nc1nc(N)c2c(n1)NC(c1ccc(F)cc1)CC(c1ccc(Nc3nc(NCCO)nc(Nc4ccc(Cl)cc4)n3)cc1)=N2 (stereo not shown) [33f] , please?
OUT: 0.23

###

I'd appreciate it if you could supply GI50 values for the items below.
System: LOX IMVI
assay.comment: cells
experimental.context: Homo sapiens, 48 h
Write the number in µM without appending the unit.

IN: What measured GI50 is associated with Nc1nc(N)c2c(n1)NC(c1ccc(C(F)(F)F)cc1)CC(c1ccc(Nc3nc(NCCO)nc(Nc4ccc(Cl)cc4)n3)cc1)=N2 (stereo not drawn) [33g] on LOX IMVI?
OUT: 1.77

IN: What measured GI50 is associated with Cc1ccc(C2CC(c3ccc(S(=O)(=O)NCCNc4nc(Nc5ccc(F)cc5)nc(N(C)C)n4)cc3)=Nc3c(N)nc(N)nc3N2)cc1 (stereo not drawn) [31b] on LOX IMVI?
OUT: 2.09

IN: What measured GI50 is associated with CN(C)c1nc(NCCNS(=O)(=O)c2ccc(C(=O)/C=C/c3ccc(Cl)cc3)cc2)nc(Nc2ccc(F)cc2)n1 [24e] on LOX IMVI?
OUT: 2.74

IN: What measured GI50 is associated with Nc1nc(N)c2c(n1)NC(c1ccc(F)cc1)CC(c1ccc(Nc3nc(NCCO)nc(Nc4ccc(Cl)cc4)n3)cc1)=N2 (stereo not drawn) [33f] on LOX IMVI?
OUT: 1.52

IN: What measured GI50 is associated with COc1cc(/C=C/C(=O)c2ccc(C)cc2)ccc1Oc1nc(NCCO)nc(N2CCOCC2)n1 [20b] on LOX IMVI?
OUT: 0.43

IN: What measured GI50 is associated with CN(C)c1nc(NCCNS(=O)(=O)c2ccc(C(=O)/C=C/c3ccc(C(F)(F)F)cc3)cc2)nc(N2CCOCC2)n1 [23g] on LOX IMVI?
OUT: 1.68

IN: What measured GI50 is associated with Cc1ccc(C2CC(c3ccc(Nc4nc(NCCO)nc(Nc5ccc(Cl)cc5)n4)cc3)=Nc3c(N)nc(N)nc3N2)cc1 (stereo not drawn) [33b] on LOX IMVI?
OUT: 1.65

IN: What measured GI50 is associated with CN(C)c1nc(NCCNS(=O)(=O)c2ccc(C(=O)/C=C/c3ccc(F)cc3)cc2)nc(N2CCOCC2)n1 [23f] on LOX IMVI?
OUT: 1.63

IN: What measured GI50 is associated with CN(C)c1nc(NCCNS(=O)(=O)c2ccc(C(=O)/C=C/c3ccc(Cl)cc3)cc2)nc(N2CCOCC2)n1 [23e] on LOX IMVI?
OUT: 1.71

IN: What measured GI50 is associated with Cc1ccc(/C=C/C(=O)c2ccc(S(=O)(=O)NCCNc3nc(Nc4ccc(F)cc4)nc(N(C)C)n3)cc2)cc1 [24b] on LOX IMVI?
OUT: 4.12

IN: What measured GI50 is associated with COc1cc(/C=C/C(=O)c2ccc(S(=O)(=O)NCCNc3nc(N(C)C)nc(N4CCOCC4)n3)cc2)cc(OC)c1OC [23d] on LOX IMVI?
OUT: 1.64

IN: What measured GI50 is associated with CN(C)c1nc(NCCNS(=O)(=O)c2ccc(C3=Nc4c(N)nc(N)nc4NC(c4ccccc4)C3)cc2)nc(Nc2ccc(F)cc2)n1 (stereo not drawn) [31a] on LOX IMVI?
OUT: 9.96

IN: What measured GI50 is associated with CN(C)c1nc(NCCNS(=O)(=O)c2ccc(C3=Nc4c(N)nc(N)nc4NC(c4ccc(Cl)cc4)C3)cc2)nc(Nc2ccc(F)cc2)n1 (stereo not drawn) [31e] on LOX IMVI?
OUT: 1.77

IN: What measured GI50 is associated with CN(C)c1nc(NCCNS(=O)(=O)c2ccc(C(=O)/C=C/c3ccccc3)cc2)nc(N2CCOCC2)n1 [23a] on LOX IMVI?
OUT: 1.97

IN: What measured GI50 is associated with Nc1nc(N)c2c(n1)NC(c1ccccc1)CC(c1ccc(Nc3nc(NCCO)nc(Nc4ccc(Cl)cc4)n3)cc1)=N2 (stereo not drawn) [33a] on LOX IMVI?
OUT: 1.54
